// values below are reported log10 of IC50
Test system: IL-12-induced IFN-γ secretion in NK92 cells
Assay: Inhibition of IL-12-induced IFN-γ Secretion in NK92 Cells (ELISA)
Format: cell-based, human
Conditions: Homo sapiens, 24 hours incubation, 8 concentration points, read-out: IC50 (NK92_IL12/IFNγ)
Experimental: Inhibition of IL-12-induced IFN-γ Secretion in NK92 Cells The effect of the compounds of the present invention on IFN-γ secretion induced by IL-12 in NK92 cells was evaluated by an enzyme-linked immunosorbent assay (ELISA). […] The IC50 value of the test compound was calculated front 8 concentration points using the XLfit software (ID Business Solutions Ltd., UK) by the following formula: Y=Bottom+(Top−Bottom)/(1+10^((log IC50−X)×slope factor)) […]
readout_kind: log10 of IC50 (log10 of the value in µM)

compound: Cn1cc(Nc2ncc(Cl)c(N3C[C@@H]4CN(C(=O)C5CC5)C[C@]4(C)C3)n2)cn1
tested_target: IL-12-induced IFN-γ secretion in NK92 cells
readout_kind: log10 of IC50
numeric_value: -1.00

compound: Cn1cc(Nc2ncc(Cl)c(N3C[C@]4(C)CN(C(=O)C5COC5)C[C@]4(C)C3)n2)cn1
tested_target: IL-12-induced IFN-γ secretion in NK92 cells
readout_kind: log10 of IC50
numeric_value: -0.04

compound: C[C@@]12CN(C(=O)C3CC3)C[C@]1(C)CN(c1nc(Nc3cc[nH]n3)ncc1Cl)C2
tested_target: IL-12-induced IFN-γ secretion in NK92 cells
readout_kind: log10 of IC50
numeric_value: 0.77

compound: Cn1cc(Nc2ncc(Cl)c(N3C[C@]4(C)CN(C(=O)C5CC5)C[C@]4(C)C3)n2)cn1
tested_target: IL-12-induced IFN-γ secretion in NK92 cells
readout_kind: log10 of IC50
numeric_value: -0.38

compound: CCC(=O)N1C[C@@]2(C)CN(c3nc(Nc4cnn(C)c4)ncc3Cl)C[C@@]2(C)C1
tested_target: IL-12-induced IFN-γ secretion in NK92 cells
readout_kind: log10 of IC50
numeric_value: -0.23

compound: Cn1cc(Nc2ncc(Cl)c(N3C[C@]4(C)CN(C(=O)C5(O)CC5)C[C@]4(C)C3)n2)cn1
tested_target: IL-12-induced IFN-γ secretion in NK92 cells
readout_kind: log10 of IC50
numeric_value: 0.53

compound: Cc1nnc(N2C[C@@]3(C)CN(c4nc(Nc5cnn(C)c5)ncc4Cl)C[C@@]3(C)C2)o1
tested_target: IL-12-induced IFN-γ secretion in NK92 cells
readout_kind: log10 of IC50
numeric_value: 0.66

compound: Cn1cc(Nc2ncc(Cl)c(N3C[C@]4(C)CN(C(=O)C(C)(C)C#N)C[C@]4(C)C3)n2)cn1
tested_target: IL-12-induced IFN-γ secretion in NK92 cells
readout_kind: log10 of IC50
numeric_value: 0.73

compound: C[C@@]12CN(C(=O)C3CC3)C[C@]1(C)CN(c1nc(Nc3cnn(CCO)c3)ncc1F)C2
tested_target: IL-12-induced IFN-γ secretion in NK92 cells
readout_kind: log10 of IC50
numeric_value: 0.62

compound: Cc1cnc(Nc2cnn(C)c2)nc1N1C[C@]2(C)CN(C(=O)CC(F)(F)F)C[C@]2(C)C1
tested_target: IL-12-induced IFN-γ secretion in NK92 cells
readout_kind: log10 of IC50
numeric_value: 0.14

compound: Cn1cc(Nc2ncc(Cl)c(N3C[C@]4(C)CN(C(=O)c5ccccn5)C[C@]4(C)C3)n2)cn1
tested_target: IL-12-induced IFN-γ secretion in NK92 cells
readout_kind: log10 of IC50
numeric_value: 0.90

compound: Cn1cc(Nc2ncc(Cl)c(N3C[C@H]4CN(C(=O)CC#N)C[C@@]4(C)C3)n2)cn1
tested_target: IL-12-induced IFN-γ secretion in NK92 cells
readout_kind: log10 of IC50
numeric_value: -0.14

compound: C[C@@]12CN(C(=O)CC#N)C[C@]1(C)CN(c1nc(Nc3cnn(CCO)c3)ncc1Cl)C2
tested_target: IL-12-induced IFN-γ secretion in NK92 cells
readout_kind: log10 of IC50
numeric_value: 0.44

compound: Cn1cc(Nc2ncc(Cl)c(N3C[C@H]4CN(C(=O)C5CC5)C[C@@]4(C)C3)n2)cn1 (racemic)
tested_target: IL-12-induced IFN-γ secretion in NK92 cells
readout_kind: log10 of IC50
numeric_value: -0.57

compound: Cn1cc(Nc2ncc(Cl)c(N3C[C@@H]4CN(C(=O)CC(F)(F)F)C[C@]4(C)C3)n2)cn1 (racemic)
tested_target: IL-12-induced IFN-γ secretion in NK92 cells
readout_kind: log10 of IC50
numeric_value: -0.48
